Give measured melting point for each item. Keep answers brief.

Let me know recorded melting point for Cc1ccc(NC(=O)n2cc(F)c(=N)n(C)c2=O)cc1 [Compound 1] , thanks.
184.7 to 186.2 °C

Assign melting point to the following record: Cn1c(=N)c(F)cn(C(=O)Nc2cccs2)c1=O [Compound 8]
200.3 to 201.8 °C

Return value of melting point for input COc1ccc(NC(=O)n2cc(F)c(=N)n(C)c2=O)cc1F [Compound 19] , no commentary.
194.3 to 196.3 °C

Identify measured melting point corresponding to COc1ccccc1NC(=O)n1cc(F)c(=N)n(C)c1=O [Compound 9]
168.9 to 170 °C

Please report melting point for the following molecule: Cn1c(=N)c(F)cn(C(=O)Nc2cccc(C#N)c2)c1=O [Compound 15]
204.1 to 205.5 °C

Please report melting point for the following molecule: "Cn1c(=N)c(F)cn(C(=O)Nc2ccccc2)c1=O"
192.3 to 194.4 °C

Return the recorded melting point value; entry: Cc1ccc(NC(=O)n2cc(F)c(=N)n(C)c2=O)cc1Cl [Compound 16]
192.9 to 193.5 °C

Tell us which melting point value is on record for Cn1c(=N)c(F)cn(C(=O)Nc2ccsc2)c1=O [Compound 7]
194.2 to 195.2 °C

Determine its reported melting point: Cn1c(=N)c(F)cn(C(=O)Nc2ccc(F)cc2)c1=O [Compound 13]
194 to 196 °C

Look up and state reported melting point for COc1ccc(NC(=O)n2cc(F)c(=N)n(C)c2=O)cc1 [Compound 4]
194.8 to 195.4 °C

Provide measured melting point value, entry: COc1ccc(OC)c(NC(=O)n2cc(F)c(=N)n(C)c2=O)c1 [Compound 17]
168.3 to 169.6 °C
